Protocol Summary: Half life in Sprague-Dawley rat at 5 mg/kg, po
Assay type: ADME, organism-based
Test Context: in vivo
Test Readout: half-life (h)
Give bare numbers, in h.

What does the data say about its half-life? Entry: `Cc1ccc(C(=O)Nc2cc(C(=O)O)sc2Oc2ccc(F)cn2)cc1`
2.96

====

Protocol Summary: Aqueous solubility of compound in SIF at pH 6.8 by spectrometry
Type: ADME
Test Context: simulated gi fluid
Task for the reader: assign each of the following molecules its reported log10 of solubility.
The base-10 logarithm of solubility, taken with solubility in µg/mL, is what appears here.

Recorded results for 5 molecules are shown here.
Cc1ccc(C(=O)Nc2cc(C(=O)O)sc2Oc2ccc(C)nc2)cc1    -0.72
Cc1ccc(C(=O)Nc2cc(C(=O)O)cc(-c3ccoc3)c2)cc1    -0.33
COc1ccc(C(=O)Nc2cc(C(=O)O)sc2Oc2ccc(C)nc2)cc1    -0.37
Cc1ccc(C(=O)Nc2cc(C(=O)O)sc2Oc2ccc(C)cn2)cc1    -0.96
Cc1ccc(C(=O)Nc2cc(C(=O)O)nn2Cc2ccc(F)cc2)cc1    -0.69

I have 2 molecules here; please give me log10 of solubility for each one.
1. Cc1ccc(C(=O)Nc2cc(C(=O)O)sc2Oc2ccc(F)cn2)cc1
2. Cc1ccc(C(=O)Nc2cc(C(=O)O)sc2Oc2ccc(F)nc2)cc1

1: -0.76; 2: 0.08
